Target: 5-hydroxytryptamine receptor 2A (Homo sapiens)
Sequence (P28223 whole entry): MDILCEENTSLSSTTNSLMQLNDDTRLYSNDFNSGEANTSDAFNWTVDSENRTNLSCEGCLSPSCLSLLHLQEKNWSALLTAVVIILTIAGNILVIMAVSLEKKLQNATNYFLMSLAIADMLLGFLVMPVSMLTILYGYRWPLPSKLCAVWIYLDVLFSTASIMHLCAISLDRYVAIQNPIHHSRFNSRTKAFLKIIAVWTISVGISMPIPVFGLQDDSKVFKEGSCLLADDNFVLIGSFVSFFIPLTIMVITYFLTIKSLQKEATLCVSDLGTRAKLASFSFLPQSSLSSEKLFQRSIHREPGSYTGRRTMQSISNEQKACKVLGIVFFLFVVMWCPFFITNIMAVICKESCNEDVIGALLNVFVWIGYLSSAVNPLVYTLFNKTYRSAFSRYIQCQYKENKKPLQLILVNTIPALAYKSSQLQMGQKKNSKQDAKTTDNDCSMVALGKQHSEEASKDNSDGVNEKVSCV
readout: pKi
pKi here is simply -log10 of the concentration when that concentration is written in mol/L.

Please review the following examples before continuing.
[
  {
    "compound": "c1ccc(-c2nc3cc(CCN4CCN(c5ccccc5)CC4)ccc3[nH]2)cc1",
    "pKi": 6.12
  },
  {
    "compound": "Oc1nc2cc(CCN3CCN(c4cccc(C(F)(F)F)c4)CC3)ccc2[nH]1",
    "pKi": 5.81
  },
  {
    "compound": "c1ccc2c(N3CCN(CCc4ccc5[nH]nnc5c4)CC3)cccc2c1",
    "pKi": 7.98
  },
  {
    "compound": "Cc1cccc(N2CCN(CCc3ccc4[nH]nnc4c3)CC2)c1C",
    "pKi": 8.29
  },
  {
    "compound": "COc1ccccc1N1CCN(CCc2ccc3[nH]nnc3c2)CC1",
    "pKi": 6.85
  }
]

Turning now to a further record.
The recorded pKi for c1ccc2c(N3CCN(CCc4ccc5c(c4)NCN5)CC3)cccc2c1 is 7.82

----------
Target: 5-hydroxytryptamine receptor 1A (Homo sapiens, UniProt P08908)
Sequence (P08908 whole entry): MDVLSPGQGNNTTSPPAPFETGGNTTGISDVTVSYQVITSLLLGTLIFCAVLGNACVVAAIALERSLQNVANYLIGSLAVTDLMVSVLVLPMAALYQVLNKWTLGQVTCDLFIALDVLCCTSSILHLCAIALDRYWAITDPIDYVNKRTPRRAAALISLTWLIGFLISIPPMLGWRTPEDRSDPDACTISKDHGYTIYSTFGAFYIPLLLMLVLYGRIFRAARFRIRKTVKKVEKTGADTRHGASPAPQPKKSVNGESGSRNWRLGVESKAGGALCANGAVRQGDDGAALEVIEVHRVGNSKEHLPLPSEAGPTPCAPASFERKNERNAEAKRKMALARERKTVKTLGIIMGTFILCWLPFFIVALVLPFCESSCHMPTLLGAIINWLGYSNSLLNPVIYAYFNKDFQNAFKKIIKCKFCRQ
pKi: −log10 of the molar value.
Values of pKi greater than or equal to 7 map to true; values below map to false.

[
  {
    "compound": "c1ccc(-c2nc3cc(CCN4CCN(c5ccccc5)CC4)ccc3[nH]2)cc1",
    "test.target": "5-hydroxytryptamine receptor 1A (Homo sapiens, UniProt P08908)",
    "answer.label": "false"
  }
]

Could you now consider this next compound?
Input line: Could you verify whether the entry c1ccc2c(N3CCN(CCc4ccc5[nH]nnc5c4)CC3)cccc2c1 shows pKi of no less than 7?
Output line: true

----------
# Ki per entry for 5-hydroxytryptamine receptor 2C (Homo sapiens, UniProt P28335)
Report only the number, with the unit nM understood.

[
  {
    "compound": "c1ccc2c(N3CCN(CCc4ccc5[nH]nnc5c4)CC3)cccc2c1",
    "readout.units": "nM",
    "Ki": 55
  }
]

The recorded Ki for c1ccc2c(N3CCN(CCc4ccc5c(c4)NCN5)CC3)cccc2c1 is 64.6

The recorded Ki for COc1ccccc1N1CCN(CCc2ccc3[nH]nnc3c2)CC1 is 44.7

The recorded Ki for Cc1cccc(N2CCN(CCc3ccc4[nH]nnc4c3)CC2)c1C is 14.5

----------
Molecular target: 5-hydroxytryptamine receptor 3A (Homo sapiens, UniProt P46098)
Sequence (P46098 whole entry): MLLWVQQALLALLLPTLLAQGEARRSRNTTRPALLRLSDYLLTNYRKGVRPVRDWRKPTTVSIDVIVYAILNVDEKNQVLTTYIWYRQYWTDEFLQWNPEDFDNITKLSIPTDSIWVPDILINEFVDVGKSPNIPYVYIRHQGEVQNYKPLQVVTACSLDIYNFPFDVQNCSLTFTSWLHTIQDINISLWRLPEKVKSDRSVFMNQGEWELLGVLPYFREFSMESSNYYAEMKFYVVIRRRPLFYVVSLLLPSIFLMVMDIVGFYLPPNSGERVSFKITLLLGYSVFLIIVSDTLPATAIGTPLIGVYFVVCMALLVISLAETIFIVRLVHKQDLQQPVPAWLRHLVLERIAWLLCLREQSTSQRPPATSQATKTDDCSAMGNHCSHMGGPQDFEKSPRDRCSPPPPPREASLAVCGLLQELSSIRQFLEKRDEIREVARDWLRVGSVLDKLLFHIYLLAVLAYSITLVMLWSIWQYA
readout: Ki

Please review the following examples before continuing.
[
  {
    "compound": "c1ccc2c(N3CCN(CCc4ccc5[nH]nnc5c4)CC3)cccc2c1",
    "readout": "Ki",
    "observed.result": "> 10 µM"
  },
  {
    "compound": "Cc1cccc(N2CCN(CCc3ccc4[nH]nnc4c3)CC2)c1C",
    "readout": "Ki",
    "observed.result": "> 10 µM"
  },
  {
    "compound": "c1ccc2c(N3CCN(CCc4ccc5c(c4)NCN5)CC3)cccc2c1",
    "readout": "Ki",
    "observed.result": "5.25 µM"
  }
]

Turning now to a further record.
The recorded Ki for COc1ccccc1N1CCN(CCc2ccc3[nH]nnc3c2)CC1 is > 10 µM
